metric.name: melting point

Some compounds with recorded melting point:
COc1cc2c(cc1OC)-c1c(C)nc(Nc3c(C)cccc3C)n1CC2 :: 234 to 236 °C
CCOC(=O)N1CCN(c2ccc(-n3cnn(C(C)(C)C(=O)c4ccc(Cl)cc4)c3=O)cc2)CC1 :: 137 °C

*Q* Which value of melting point has been reported for C=CCN1CCCC1CNC(=O)c1cc(S(N)(=O)=O)cc2c1OCCO2 (stereo unspecified) in the records?
*A* 143 to 144 °C

*Q* Which value of melting point has been reported for `O=c1c2cc(F)ccc2nc(CNc2ncccn2)n1-c1ccccc1Cl` in the records?
*A* 182 to 185 °C
